The values you see were collected from ChEMBL document CHEMBL4387733.

# Test Protocol: Total drug level in rat plasma at 10 mg/kg, po
# Type: ADME, organism-based
# Condition Summary: in vivo
Attribute Measured: concentration (µM)
Answers are plain numbers, in µM.

concentration reading for `COc1ccc(F)c(-c2ccc3c(c2)CC[C@H]3Oc2cccc([C@H](C3CC3)[C@H](C)C(=O)O)c2)c1` : 7.61

###

# Test Protocol: Drug level in rat plasma at 650 mg/kg
# Assay type: ADME, organism-based
# Condition Summary: in vivo
Attribute Measured: concentration (nM)
One number for each entry, in nM.

concentration reading for `COc1ccc(F)c(-c2ccc3c(c2)CC[C@H]3Oc2cccc([C@H](C3CC3)[C@H](C)C(=O)O)c2)c1` : 1900
